tested on: NKG2A−/NKG2C+ NK cells; assay: NK cell activation markers in NKG2A-/NKG2C+ NK cells incubated with peptide and K562 expressing HLA-E (activation); assay type: cell-based, human; conditions: NKG2A-/NKG2C+ NK cells, K562/HLA-E, Trial 6
Where no end group is shown, it is not given here.
For each entry below, report its percentage of IFNG+ NK cells value.

Identify percentage of IFNG+ NK cells associated with the sequence TGPWRSLWI [human3, TGPWRSLWI]
23.3%

Identify percentage of IFNG+ NK cells associated with the sequence VMAPQSLLL [VMAPQSLLL (PQS), negative control peptide, reference compound]
10.3%

Output percentage of IFNG+ NK cells of TLPERTLYL [human7, peptide ECEL1 269-277 derived from the human proteome]
45.4%

Name the recorded percentage of IFNG+ NK cells of the sequence listed here: VMPGRTLCF [human11, peptide TACR3 226-234 derived from the human proteome]
35.3%

Provide only the value of recorded percentage of IFNG+ NK cells for VLPHRTQFL [CMV1, novel CMV-derived peptide UL120 72-80, Merlin]
42.5%

Read off the recorded percentage of IFNG+ NK cells for TAPARTMFL [human13, TAPARTMFL]
14.3%

Write down percentage of IFNG+ NK cells measured for item FLPNRSLLF [human8, peptide SLC52A3 354-362 derived from the human proteome]
43.8%

Kindly indicate its recorded percentage of IFNG+ NK cells. Item: QMPSRSLLF [human1, QMPSRSLLF]
46.7%

State its percentage of IFNG+ NK cells for this sequence: VMPPRTLLL [human15, peptide HLA-A 3-11 derived from the human proteome]
44.1%

###

test system: NKG2A−/NKG2C− NK cells; assay: NK cell activation markers in control NKG2A-/NKG2C- NK cells incubated with peptide and K562 expressing HLA-E; type: cell-based, human; settings: Trial 1
Where no end group is shown, it is not given here.
PROPERTY MEASURED: percentage TNF+ NK cells (%)
The reply should be a number in %, with the unit left off.

Quote percentage TNF+ NK cells reported for QMPSRSLLF [human1, QMPSRSLLF] please.
4.84

Respond only with percentage TNF+ NK cells recorded for ILTDRSLWL [human4, peptide FBXO41 670-678 derived from the human proteome]
3.99

Identify measured percentage TNF+ NK cells corresponding to TGPWRSLWI [human3, TGPWRSLWI]
4.31

Supply measured percentage TNF+ NK cells of VMPGRTLCF [human11, peptide TACR3 226-234 derived from the human proteome] in your reply.
3.75

Entry TAPARTMFL [human13, TAPARTMFL] needs its percentage TNF+ NK cells filled in; supply it.
3.65

Output measured percentage TNF+ NK cells for this item: TLPKRGLFL [human2, TLPKRGLFL]
4.12

Given TLPERTLYL [human7, peptide ECEL1 269-277 derived from the human proteome] , respond with its percentage TNF+ NK cells.
4.13

For the sequence VMPPRTLLL [human15, peptide HLA-A 3-11 derived from the human proteome] , give its measured percentage TNF+ NK cells value.
3.42

Note percentage TNF+ NK cells for the sequence shown: NMPARTVLF [human14, peptide MTREX 490-498 derived from the human proteome]
2.61

###

Test system: NKG2A−/NKG2C− NK cells
Assay: NK cell activation markers in control NKG2A-/NKG2C- NK cells incubated with peptide and K562 expressing HLA-E
Type: cell-based, human
Conditions: Trial 3
Method: A human immortalized myelogenous leukemia cell line (K562), which expresses HLA-E was incubated with novel peptides (Table 1) derived from the human proteome or human cytomegalovirus proteome. […] Controls assessments were also performed using NKG2A−/NKG2C− cells (Tables 10-13). Inhibition was indicated by a decrease in percent cells positive for cell surface markers, while activation was indicated by an increase in percent cells positive for cell surface markers.
Where no end group is shown, it is not given here.
PROPERTY MEASURED: percentage CCL3+ NK cells

Supply recorded percentage CCL3+ NK cells for TLPKRGLFL [human2, TLPKRGLFL] here.
49.9%

Hello, please tell me recorded percentage CCL3+ NK cells for this one: QMPSRSLLF [human1, QMPSRSLLF]
51.3%

Look up and state reported percentage CCL3+ NK cells for TLPERTLYL [human7, peptide ECEL1 269-277 derived from the human proteome]
47%

Quick one: give measured percentage CCL3+ NK cells for VLPHRTQFL [CMV1, novel CMV-derived peptide UL120 72-80, Merlin]
47.3%

Tell us which percentage CCL3+ NK cells value is on record for VMAPQSLLL [VMAPQSLLL (PQS), negative control peptide, reference compound]
59.4%

Using known records, supply percentage CCL3+ NK cells for TAPARTMFL [human13, TAPARTMFL]
56.2%

###

molecular target: CD94/NKG2C (Homo sapiens, UniProt P26717+Q13241); experiment: Steady-state surface plasmon resonance of peptide-HLA-E complex with CD94/NKG2C; format: binding; conditions: CD94/NKG2C concentration 0.2 μM
Sequence (P26717 94-231 limits assumed): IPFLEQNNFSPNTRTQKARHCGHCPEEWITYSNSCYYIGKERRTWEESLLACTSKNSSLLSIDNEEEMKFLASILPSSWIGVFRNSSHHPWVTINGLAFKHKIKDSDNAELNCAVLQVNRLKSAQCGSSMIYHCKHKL
Sequence (Q13241 32-179 limits assumed): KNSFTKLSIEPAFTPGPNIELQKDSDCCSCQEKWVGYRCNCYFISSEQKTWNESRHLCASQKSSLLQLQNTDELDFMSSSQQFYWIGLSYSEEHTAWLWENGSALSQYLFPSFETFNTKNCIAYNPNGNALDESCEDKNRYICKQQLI
Where no end group is shown, it is not given here.
PROPERTY MEASURED: binding of peptide-HLA-E complex to CD94/NKG2C normalized to a fitted Rmax
Give the figure by itself; no unit, no explanation.

Determine its reported binding of peptide-HLA-E complex to CD94/NKG2C normalized to a fitted Rmax: TGPWRSLWI [human3, TGPWRSLWI]
0.007

Respond only with binding of peptide-HLA-E complex to CD94/NKG2C normalized to a fitted Rmax recorded for TAPARTMFL [human13, TAPARTMFL]
0.023

State, in one line, measured binding of peptide-HLA-E complex to CD94/NKG2C normalized to a fitted Rmax of VNPGRSLFL [human5, VNPGRSLFL]
0.119

Input QMPSRSLLF [human1, QMPSRSLLF] , output reported binding of peptide-HLA-E complex to CD94/NKG2C normalized to a fitted Rmax.
0.017

Please supply the value of reported binding of peptide-HLA-E complex to CD94/NKG2C normalized to a fitted Rmax for the item TLPKRGLFL [human2, TLPKRGLFL]
0.009

###

target: CD94/NKG2A (Homo sapiens, UniProt P26715+Q13241); assay: Steady-state surface plasmon resonance of peptide-HLA-E complex with CD94/NKG2A; format: binding; settings: steady-state SPR; CD94/NKG2A analyte concentration 6.400 μM
Sequence (P26715 94-233 limits assumed): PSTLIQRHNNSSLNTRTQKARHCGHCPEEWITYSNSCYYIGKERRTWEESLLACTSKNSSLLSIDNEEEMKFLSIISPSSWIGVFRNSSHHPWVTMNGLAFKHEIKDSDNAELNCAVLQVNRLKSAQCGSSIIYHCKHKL
Sequence (Q13241 32-179 limits assumed): as the sequence (Q13241 32-179 limits assumed) above
Where no end group is shown, it is not given here.
PROPERTY MEASURED: Binding of peptide-HLA-E complexes to CD94/NKG2A normalized to a theoretical Rmax

Hello, please tell me recorded Binding of peptide-HLA-E complexes to CD94/NKG2A normalized to a theoretical Rmax for this one: TGPWRSLWI [human3, TGPWRSLWI]
0.070

Please list Binding of peptide-HLA-E complexes to CD94/NKG2A normalized to a theoretical Rmax recorded for the sequence QMPSRSLLF [human1, QMPSRSLLF]
0.479

# return recorded Binding of peptide-HLA-E complexes to CD94/NKG2A normalized to a theoretical Rmax for entry TLPKRGLFL [human2, TLPKRGLFL]
0.465

Please list Binding of peptide-HLA-E complexes to CD94/NKG2A normalized to a theoretical Rmax recorded for the sequence TAPARTMFL [human13, TAPARTMFL]
0.277

Tell me measured Binding of peptide-HLA-E complexes to CD94/NKG2A normalized to a theoretical Rmax for VNPGRSLFL [human5, VNPGRSLFL] please.
0.398

###

molecular target: HLA-E (Homo sapiens, UniProt P13747); construct: expressed in transfected cells; host or cells: RMA-S/HLA-E cells (antigen processing-defective lymphoma cell line); assay: HLA-E surface stabilization assay with RMA-S/HLA-E cells; format: cell-based; settings: 30 μM peptide, 16 hours, anti-HLA-E antibody, Trial 2
Sequence (P13747 22-358): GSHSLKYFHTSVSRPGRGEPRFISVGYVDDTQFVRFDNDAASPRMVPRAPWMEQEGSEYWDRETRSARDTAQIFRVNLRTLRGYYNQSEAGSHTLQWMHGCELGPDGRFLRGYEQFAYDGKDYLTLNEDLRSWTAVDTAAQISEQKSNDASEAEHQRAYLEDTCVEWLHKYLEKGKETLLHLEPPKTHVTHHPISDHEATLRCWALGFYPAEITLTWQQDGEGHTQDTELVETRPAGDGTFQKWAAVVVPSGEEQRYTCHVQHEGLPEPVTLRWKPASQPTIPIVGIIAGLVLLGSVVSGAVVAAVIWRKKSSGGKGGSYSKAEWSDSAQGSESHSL
Sequence (P61769 21-119 partner): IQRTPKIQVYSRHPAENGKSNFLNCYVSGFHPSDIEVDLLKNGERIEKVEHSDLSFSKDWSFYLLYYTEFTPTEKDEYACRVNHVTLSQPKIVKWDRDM
Where no end group is shown, it is not given here.
PROPERTY MEASURED: HLA-E surface expression stability (GeoMFI)
Report as a plain number; the unit GeoMFI is understood.

Identify HLA-E surface expression stability (GeoMFI) associated with the sequence RMPPRSVLL [human12]
4219

Find the measured HLA-E surface expression stability (GeoMFI) of NMPARTVLF [human14, peptide MTREX 490-498 derived from the human proteome] and report it.
1364

Complete the entry with HLA-E surface expression stability (GeoMFI) for VLPHRTQFL [CMV1, novel CMV-derived peptide UL120 72-80, Merlin]
1714

Hello, please tell me recorded HLA-E surface expression stability (GeoMFI) for this one: VMPGRTLCF [human11, peptide TACR3 226-234 derived from the human proteome]
2914

Indicate the recorded HLA-E surface expression stability (GeoMFI) value for this sequence: VMPPRTLLL [human15, peptide HLA-A 3-11 derived from the human proteome]
4068

In one line, give reported HLA-E surface expression stability (GeoMFI) of the entry ILTDRSLWL [human4, peptide FBXO41 670-678 derived from the human proteome] .
921

Give the measured HLA-E surface expression stability (GeoMFI) for TAPARTMFL [human13, TAPARTMFL]
887

Input TLPKRGLFL [human2, TLPKRGLFL] , output reported HLA-E surface expression stability (GeoMFI).
2029
